tested on: Aspergillus fumigatus ATCC 90906; assay: Antimicrobial assay; format: cell-based; conditions: Aspergillus fumigatus, ATCC90906, read-out: A. fumigatus IC50
MEASUREMENT TYPE: IC50 (µg/mL)
Report as a plain number; the unit µg/mL is understood.

**Q:** Give me measured IC50, please, for this compound: `CC(C)C1=CC2=CC(=O)[C@H]3C(C)(C)CCC[C@]3(C)C2=C(O)C1=O`
**A:** 8.9

Next compound, IC50 to be filled in.
**Q:** Kindly indicate its recorded IC50. Item: C[C@@H]1[C@H](O)[C@@H](C)/C=C/C=C/C=C/C=C/C=C/C=C/C=C/[C@H](O[C@@H]2O[C@H](C)[C@@H](O)[C@H](N)[C@@H]2O)C[C@@H]2O[C@](O)(C[C@@H](O)C[C@@H](O)[C@H](O)CC[C@@H](O)C[C@@H](O)CC(=O)O[C@H]1C)C[C@H](O)[C@H]2C(=O)O [Amphotericin B, reference compound]
**A:** 1.29
